Tested on: Wnt5a (protein binding on small-molecule microarray)
Test: small molecules binding Wnt5a protein – biophysical, small-molecule microarray, 635/667 nm fluorescence, primary screen (AID 1142);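 further: fluorescence read at 667 nm with signal to noise per printed feature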
Conditions: 635 nm fluorescence, higher = more signal
Entries and their composite z-score values follow.
quantity_measured: composite z-score

molecule	result
NC(=O)[C@H]1[C@@H]2C(=O)O[C@@H](c3ccccc3)[C@@H](c3ccccc3)N2[C@@H](c2ccc(O)cc2)[C@]12C(=O)Nc1ccc(C#CC3(O)CCCCCC3)cc12	0.0428
C=CCC(OC(C)=O)[C@@H]1[C@@H](N(Cc2cccc3ccccc23)C(=O)Cc2ccc(F)cc2)c2cc(OCCCO)ccc2N1C(=O)Cc1ccc(OC)cc1 (stereo partly drawn)	-0.0124
COC(=O)[C@@]1(Cc2ccc(OC)cc2)[C@H]2c3cc(C(=O)N4CCCC4)n(Cc4ccc(C)o4)c3C[C@H]2CN1C(=O)c1ccccc1	0.989
COc1ccc(C#Cc2ccc3c(c2)[C@]2(C(=O)N3)[C@H](C(=O)O)[C@H]3C(=O)O[C@H](c4ccccc4)[C@H](c4ccccc4)N3[C@@H]2c2ccc(OCCO)cc2)cc1	0.356
COc1ccc(C(=O)Nc2ccc(CN3C(=O)[C@@]4(O[C@@H](CC(=O)N5Cc6ccccc6C[C@H]5CO)[C@H]([Si](C)(C)c5ccc(OC)cc5)[C@H]4C)c4ccccc43)cc2)cc1	0.206
CCCNC(=O)[C@@]1(Sc2ccc(C)cc2)CC(=O)N(Cc2ccccc2)[C@@H]1c1ccc(CO)cc1I	0.308
COCC(=C=CC[C@@H](O)c1ccccc1OCCO)C[C@@H](O)c1ccccn1	0.088
O=C1c2ccccc2[C@](Cc2ccccc2I)(C(=O)NCC(F)(F)F)[C@H](c2ccc(CO)cc2)N1Cc1ccccc1	-0.134
C=C(/C(=C/C[C@@H](OC(=O)c1ccncc1)c1cccc(OCCO)c1)c1cc(C(=O)OC)ccc1OC)C(C)C	-0.0958
COC(=O)[C@]1(Cc2ccccc2CN=[N+]=[N-])N=C(c2ccc(OCCCO)cc2)O[C@@H]1c1ccccc1	-0.311
CC(C)C[C@@H]1NC(=O)[C@@H]2C[C@H](C(=O)NCCCC[N+](C)(C)C)[C@H](c3cccc(OCCO)c3)N2C1=O	0.379
O=C1C2C=CC(C(O)c3cccc4ccccc34)N(Nc3ccccc3)C2C(=O)N1c1ccccc1 (stereo not drawn)	0.336
CC1CC/C=C\[C@H]2OC34C=CCN(c5ccc(Cl)cc5)C(=O)[C@H]3N(C(CO)C(C)C)C(=O)[C@]4(C)C2C(=O)O1 (stereo partly drawn)	-0.293
CC(C)C[C@@H]1NC(=O)[C@@]23C(=O)N[C@@H](Cc4ccccc4)C2[C@H](C)[C@@]2(C)O[C@H]2C3/C=C/C/C=C\CNC(=O)[C@@H]2CCCN2C1=O (stereo partly drawn)	-0.0917
COc1ccc([Si](C)(C)[C@@H]2[C@@H](CC(=O)N3Cc4ccccc4C[C@H]3CO)O[C@]3(C(=O)N(Cc4cccc(N5CCCCC5=O)c4)c4ccccc43)[C@H]2C)cc1	0.41
CCCN1C(=O)[C@@]2(Cc3ccccc3)N=C(c3ccc(OCCCO)cc3)O[C@H]2c2ccccc21	0.421
CCOC(=O)C[C@H]1[C@H](OC(=O)c2cc3ccccc3oc2=O)[C@@H](NC(=O)c2ccc3ccccc3n2)c2cc(OCCCO)ccc2N1C(=O)c1ccc2ccccc2n1	0.27
Cc1ccc(-c2cccc(=O)o2)cc1	0.796
CCOC(=O)C[C@H]1[C@H](OC(=O)Cc2ccc3c(c2)OCO3)[C@@H](NC(=O)c2ccccc2)c2cc(OCCCO)ccc2N1C(=O)c1ccc2ccccc2n1	-0.112
O=C1NC(=O)C2C1C=CC(C(O)c1ccc3c(c1)OCO3)N2Nc1ccc(Cl)cc1Cl (stereo not drawn)	-0.002
CN(C)C(=O)[C@@]1(CCC(=O)OC(C)(C)C)N=C(c2ccc(OCCCO)cc2)O[C@H]1c1ccccc1N=[N+]=[N-]	1.46
C=CC[C@@]1(C(=O)NCCN2CCOCC2)N=C(c2ccc(OCCCO)cc2)O[C@@H]1c1ccccc1	1.32
COCCOC(=O)N1C(=O)[C@@]2(c3cc(C#CC4(O)CCCCCC4)ccc31)[C@H](C(=O)NC[C@H](O)c1ccccc1)[C@H]1C(=O)O[C@H](c3ccccc3)[C@H](c3ccccc3)N1[C@@H]2c1ccc(OCCO)cc1	-0.0894
COCCOC(=O)N1C(=O)[C@@]2(c3cc(C#Cc4ccc(OC)cc4)ccc31)[C@H](c1ccc(OCCO)cc1)N1[C@H](c3ccccc3)[C@H](c3ccccc3)OC(=O)[C@H]1[C@@H]2C(N)=O	0.41
CN(C)C(=O)[C@]1(Cc2ccccc2N=[N+]=[N-])N=C(c2ccc(OCCCO)cc2)O[C@@H]1c1ccccc1CN=[N+]=[N-]	0.556
CN(C)CCCCCCNC(=O)[C@@H]1C[C@@H]2C(=O)NCC(=O)N2[C@@H]1c1ccc(O)cc1	0.781
CN1C(=O)C2C=CC(C(O)c3ccc(F)cc3)N(N3CCCCC3)C2C1=O (stereo not drawn)	0.442
CC(C)(C)OC(=O)CC[C@]1(C(=O)O)COC(c2ccc(OCCCO)cc2)=N1	-0.0943
